Listed compounds paired with reported viability at 31.25 µg/mL
Tested on: A549 human lung cancer cells
Assay: cell viability assay (MTT)
Assay type: cell-based
Conditions: 31.25 µg/mL, 24 h, read-out: Validity (%) for sample concentrations (µg/mL) 31.25
Number in %, nothing else.

Please review the entries below; each comes with its answer.
Q: If you can, please state the reported viability at 31.25 µg/mL value of O=C1C(Cl)C(c2ccc(Cl)cc2)N1c1nc(-c2cc(Cl)cc3c2-c2ccc(Cl)cc2C3)cs1 (stereo not shown) [6c] .
A: 59.8

Q: If you can, please state the reported viability at 31.25 µg/mL value of COc1cc(C2C(Cl)C(=O)N2c2nc(-c3cc(Cl)cc4c3-c3ccc(Cl)cc3C4)cs2)ccc1O (stereo not shown) [6h] .
A: 79

Q: If you can, please state the reported viability at 31.25 µg/mL value of O=C1CSC(c2ccnc3ccccc23)N1c1nc(-c2cc(Cl)cc3c2-c2ccc(Cl)cc2C3)cs1 (stereo not shown) [5n] .
A: 83.1

Further cases:
Q: If you can, please state the reported viability at 31.25 µg/mL value of O=C1CSC(c2ccc(Br)cc2)N1c1nc(-c2cc(Cl)cc3c2-c2ccc(Cl)cc2C3)cs1 (stereo not shown) [5d] .
A: 88.9

----------
Test system: A549 human lung cancer cells
Test: cell viability assay (MTT)
Assay type: cell-based
Details: 62.50 µg/mL, 24 h, read-out: Validity (%) for sample concentrations (µg/mL) 62.50
test_readout: viability at 62.5 µg/mL (%)
Number in %, nothing else.

Please review the entries below; each comes with its answer.
Q: If you can, please state the reported viability at 62.5 µg/mL value of O=C1CSC(c2ccccc2)N1c1nc(-c2cc(Cl)cc3c2-c2ccc(Cl)cc2C3)cs1 (stereo not drawn) [5a] .
A: 82.3

Q: If you can, please state the reported viability at 62.5 µg/mL value of O=C1CSC(c2ccc(Cl)cc2)N1c1nc(-c2cc(Cl)cc3c2-c2ccc(Cl)cc2C3)cs1 (stereo not drawn) [5c] .
A: 80.9

Q: If you can, please state the reported viability at 62.5 µg/mL value of O=C1CSC(c2ccnc3ccccc23)N1c1nc(-c2cc(Cl)cc3c2-c2ccc(Cl)cc2C3)cs1 (stereo not drawn) [5n] .
A: 78.6

Further cases:
Q: If you can, please state the reported viability at 62.5 µg/mL value of O=C1CSC(c2ccncc2)N1c1nc(-c2cc(Cl)cc3c2-c2ccc(Cl)cc2C3)cs1 (stereo not drawn) [5m] .
A: 67.5

Q: If you can, please state the reported viability at 62.5 µg/mL value of O=C1C(Cl)C(c2ccnc3ccccc23)N1c1nc(-c2cc(Cl)cc3c2-c2ccc(Cl)cc2C3)cs1 (stereo not drawn) [6n] .
A: 64.2

Q: If you can, please state the reported viability at 62.5 µg/mL value of COc1ccc(C2C(Cl)C(=O)N2c2nc(-c3cc(Cl)cc4c3-c3ccc(Cl)cc3C4)cs2)cc1 (stereo not drawn) [6b] .
A: 83.5

----------
Test system: A549 human lung cancer cells
Assay: cell viability assay (MTT)
Type: cell-based
Conditions: 500 µg/mL, 24 h, read-out: Validity (%) for sample concentrations (µg/mL) 500
Under this convention, true denotes viability at 500 µg/mL strictly below 40% and false denotes viability at 500 µg/mL at or above 40%.

Q: Please let me know if O=C1CSC(c2ccc([N+](=O)[O-])cc2)N1c1nc(-c2cc(Cl)cc3c2-c2ccc(Cl)cc2C3)cs1 (stereo not shown) shows viability at 500 µg/mL below 40%.
A: false

Q: Please let me know if O=C1C(Cl)C(C=Cc2ccccc2)N1c1nc(-c2cc(Cl)cc3c2-c2ccc(Cl)cc2C3)cs1 (stereo not shown) shows viability at 500 µg/mL below 40%.
A: false

Q: Please let me know if COc1ccc(C2C(Cl)C(=O)N2c2nc(-c3cc(Cl)cc4c3-c3ccc(Cl)cc3C4)cs2)cc1 (stereo not shown) shows viability at 500 µg/mL below 40%.
A: true

Q: Please let me know if CN(C)c1ccc(C2C(Cl)C(=O)N2c2nc(-c3cc(Cl)cc4c3-c3ccc(Cl)cc3C4)cs2)cc1 (stereo not shown) shows viability at 500 µg/mL below 40%.
A: true

Q: Please let me know if O=C1C(Cl)C(c2ccccc2)N1c1nc(-c2cc(Cl)cc3c2-c2ccc(Cl)cc2C3)cs1 (stereo not shown) shows viability at 500 µg/mL below 40%.
A: true

Further cases:
Q: Please let me know if O=C(O)c1ccc(C2SCC(=O)N2c2nc(-c3cc(Cl)cc4c3-c3ccc(Cl)cc3C4)cs2)cc1 (stereo not shown) shows viability at 500 µg/mL below 40%.
A: false

Q: Please let me know if COc1cc(C2SCC(=O)N2c2nc(-c3cc(Cl)cc4c3-c3ccc(Cl)cc3C4)cs2)ccc1O (stereo not shown) shows viability at 500 µg/mL below 40%.
A: false
